System: PCTK3
Construct: gene CDK18
Conditions: concentration: 1 μM, replicates: in singlicate; n = 1;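 further: KINOMEscan kinase panel screen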
Criterion: %Inh meeting or surpassing 10%. Met: t. Not met: f.

Ask | Check the entry Clc1ccc(-c2cc(-c3c[nH]nc3-c3ccccn3)ccn2)cc1 [GW681251] : does %Inh equal or exceed 10%?
Reply | t

Ask | Test whether the compound FC(F)(F)c1ccc(-c2nn3ncccc3c2-c2ccnc(Nc3cccc(C(F)(F)F)c3)n2)cc1 [GW828205] records %Inh of 10% or higher.
Reply | f

Ask | Hi, just wondering whether Cl.c1ccc(Cn2ncc3cc(Nc4ncnc5ccccc45)ccc32)cc1 [GW273749] shows %Inh of 10% or higher.
Reply | t

Ask | Confirm if %Inh reported for the compound Cl.Cl.c1ccc(-c2cc3ccncc3cc2OC2CCNCC2)cc1 [GSK1122999] is 10% or above.
Reply | t

Ask | # bool: %Inh of Clc1cccc(-c2nc(Nc3ccncc3)c3ccccc3n2)c1 [GW873004] >= 10%
Reply | f

Ask | // inclusive: %Inh at least 10%? input: CSc1nn2c(=O)cc(N3CCOCC3)nc2n1Cc1cccc(Cl)c1Cl [GSK2347225]
Reply | f

Ask | Is the recorded value of %Inh equal to or greater than 10% for this compound? Nc1n[nH]c2nnc(-c3ccccc3)cc12 [SB-517389]
Reply | t

Ask | Threshold query (%Inh >= 10%) on COc1ccc(NC(=O)c2ccc(-c3cc(-c4nnc(C)o4)ccc3C)cc2)cc1 [GW595885]
Reply | t

Ask | Kindly determine if %Inh recorded for "COC(=O)c1c(-c2ccccc2)c2cc(Cl)ccc2c(=O)n1Cc1ccc(S(C)(=O)=O)cc1" is above or exactly 10%.
Reply | f

Ask | Check the entry Fc1cccc(COc2ccc(Nc3ncnc4sc(-c5ccc[nH]5)cc34)cc2Cl)c1 [GW707818] : does %Inh equal or exceed 10%?
Reply | f

Ask | Does %Inh meet or surpass 10% for CC(C)N1CCC(n2cnc(-c3ccc(F)cc3)c2-c2ccnc(N)n2)CC1 [SB-223132] ?
Reply | f

Ask | In plain terms: is recorded %Inh at least 10% for FC(F)(F)c1cc(Nc2nccc(-c3c(-c4ccc(Cl)cc4)nn4ncccc34)n2)ccc1Cl [GW829351] ?
Reply | f

Ask | Quick check, %Inh >= 10%? "N#Cc1ccc(Oc2ccc(Nc3ncnc4cc[nH]c34)cc2Cl)cc1"
Reply | t

Ask | For this compound, is measured %Inh 10% or higher? Nc1nc(-c2ccccn2)c(-c2ccnc3ccccc23)s1 [GW548057]
Reply | t

Ask | Determine whether this compound has %Inh no lower than 10%: O=C(Nc1n[nH]c2nc(-c3ccco3)c(Br)cc12)c1ccc(CN2CCCC2)cc1.O=C(O)[C@H](O)[C@@H](O)C(=O)O [SB-742352]
Reply | f

---

Test system: CAMKK2
Settings: concentration: 1 μM, replicates: in singlicate; n = 1
Observed property: %Inh

Ask | What is its %Inh for CAMKK2? Entry: "C[C@@H]1CCN(C(=O)CO)C[C@@H]1N(C)c1ncnc2[nH]ccc12"
Reply | 11%

Ask | For CAMKK2, provide %Inh of CS(=O)(=O)CCNCc1ccc(-c2ccc3ncnc(Nc4ccc(OCc5ccccc5)c(Cl)c4)c3c2)o1.Cl [GW574783] please.
Reply | 0%

Ask | Given the entry CSc1nn2c(=O)cc(N3CCOCC3)nc2n1Cc1cccc(Cl)c1Cl [GSK2347225] , what %Inh was observed with CAMKK2?
Reply | 23%

Ask | So what %Inh did "COC(=O)c1c(-c2ccccc2)c2cc(Cl)ccc2c(=O)n1Cc1ccc(S(C)(=O)=O)cc1" get with CAMKK2?
Reply | 14%

Ask | Entry O=C(Nc1ccccc1F)NC1CCN(c2ccnc(Nc3ccc(F)cc3)n2)C1 (centres unmarked) [GSK1379722] , system CAMKK2: what %Inh was measured?
Reply | 3%

Ask | Record c1ccc(-c2ccc3c(-c4ccnc(Nc5ccc6c(c5)OCCO6)n4)cnn3n2)cc1 [GW818941] : what is its %Inh with CAMKK2?
Reply | 0%

Ask | Entry CC(=O)Nc1n[nH]c2ncc(-c3ccccc3)cc12 [SB-548492] , system CAMKK2: what %Inh was measured?
Reply | 4%

Ask | Hello, I am looking for reported %Inh with CAMKK2 for Nc1nc(-c2ccc3c(N)n[nH]c3c2)cc(N2CCCCC2)n1 [GSK2228768] . Could you help?
Reply | 6%

Ask | Give the reported %Inh for CNc1nccc(-c2c(-c3ccc(F)cc3)ncn2C2CCN(C)CC2)n1 [SB-222903] (system: CAMKK2).
Reply | 0%

Ask | Test system CAMKK2; read-out %Inh; what value for COc1ccc(-c2oc3ncnc(N)c3c2-c2ccc(OC)cc2)cc1 [SB-589132] ?
Reply | 0%

Ask | Please state recorded %Inh (tested on CAMKK2) of CC(C)(C)OC(=O)NC1CCCN(c2cc(-c3ccc4c(N)n[nH]c4c3)nc(N)n2)C1 (centres unmarked) [GSK2286096]
Reply | 32%

Ask | Value wanted: %Inh (CAMKK2) of entry Cl.c1ccc(Cn2ncc3cc(Nc4ncnc5ccccc45)ccc32)cc1 [GW273749]
Reply | 32%

Ask | Lab note: need %Inh for "CCc1nc(-c2cccc(C)c2)c(-c2ccnc(NC(=O)c3ccccc3)c2)s1" on CAMKK2, anyone have it?
Reply | 7%

Ask | // fetch CAMKK2 %Inh for Cc1cc(N2CCC(NS(=O)(=O)c3ccc(F)cc3)CC2)nc(Nc2cccc(C#N)c2)n1.O=C(O)C(F)(F)F [GSK1653537]
Reply | 0%

Ask | Return %Inh measured with CAMKK2 given this molecule: COC(=O)c1cccc(NC(=O)NCCNc2ccnc(Nc3ccc(F)cc3)n2)c1 [GSK1379883]
Reply | 6%

Ask | %Inh of CN1CCC(n2cnc(-c3ccc(F)cc3)c2-c2ccnc(NC3CCNCC3)n2)CC1 [SB-229482] on CAMKK2?
Reply | 26%

Ask | Give %Inh (CAMKK2) of the following molecule: CC(C)N1CCC(n2cnc(-c3ccc(F)cc3)c2-c2ccnc(N)n2)CC1 [SB-223132]
Reply | 6%

Ask | Can you look up %Inh on CAMKK2 for CCn1c(-c2ccncc2)nc2cnccc21 [SB-735216] ?
Reply | 4%

Ask | Recall the recorded %Inh for "O=C(Nc1ccccc1)Nc1ccc(Oc2ccc3nccn3n2)cc1" with CAMKK2 and state it.
Reply | 14%

Ask | Entry Cn1cc(-c2ccc3c(c2)CCN3C(=O)Cc2cccc(C(F)(F)F)c2)c2c(N)ncnc21 [GSK2606414] , system CAMKK2: what %Inh was measured?
Reply | 0%

Ask | Requested read-out %Inh, target or system CAMKK2, entry CCc1nc(-c2cccc(N(C)S(=O)(=O)c3ccccc3)c2)c(-c2ccnc(Nc3ccc(N4CCN(C(C)=O)CC4)nc3)n2)s1 [GSK1645895]
Reply | 32%

Ask | # query: %Inh | item Cc1cccc(-c2nc(Nc3ccc4[nH]nnc4c3)c3ccccc3n2)n1 [GW867587] | system: CAMKK2
Reply | 0%

Ask | Look up %Inh with CAMKK2 for this molecule: CCCc1ccc(S(=O)(=O)NC2CCN(c3ccnc(Nc4ccc(OC)cc4)n3)C2)cc1 (centres unmarked) [GSK1379737]
Reply | 0%

Ask | Can you look up %Inh on CAMKK2 for CC(C)(C)c1ccc(-n2cnc3c(N)ncnc32)cc1 [SKF-97263] ?
Reply | 0%

Ask | Fill in the recorded %Inh for this molecule, with CAMKK2 as test system: COc1cc2ncnc(Nc3ccc(OCc4ccccc4Br)c(Cl)c3)c2cc1OC.Cl [GI261590]
Reply | 0%

Ask | Give CAMKK2 %Inh for CNc1nccc(-c2c(-c3ccc(F)cc3)ncn2CCCN2CCOCC2)n1 [SB-222516]
Reply | 14%

Ask | Hello, I am looking for reported %Inh with CAMKK2 for FC(F)(F)c1ccc(-c2cc(-c3c[nH]nc3-c3ccccn3)ccn2)cc1 [GW599550] . Could you help?
Reply | 23%

Ask | For the record "Clc1cc(Nc2ncnc3cc[nH]c23)ccc1OCc1ccccn1" , what value of %Inh is listed for CAMKK2?
Reply | 0%

Ask | GET /values?readout=%Inh&system=CAMKK2&item= Fc1ccc(Nc2nccc(-c3c(-c4ccc(Cl)cc4)nn4ncccc34)n2)cc1F [GW829058]
Reply | 5%

Ask | Notebook: pull reported %Inh for CAMKK2, entry "O=C(NCCCN1CCCC1=O)c1cnc(NCc2cc(Cl)ccc2Cl)nc1NC1CCNCC1"
Reply | 1%

Ask | Which %Inh is reported with CAMKK2 for this entry: CSc1ccc(NC2=C(c3ccccc3Cl)C(=O)NC2=O)cc1 [SB-342411] ?
Reply | 25%

Ask | Lab note: need %Inh with CAMKK2 for entry Oc1ccc2ncnc(Nc3ccc(OCc4ccccc4)cc3)c2c1 [GI262866] , please look it up.
Reply | 0%

Ask | Checklist item: %Inh tested on CAMKK2, entry Cl.Cn1ccc(-c2cccc(Nc3ccnc4cc(-c5nccs5)ccc34)c2)n1 [GW525701] , value?
Reply | 20%

Ask | Recorded %Inh for Nc1nc(-c2ccc3c(N)n[nH]c3c2)cc(N2CCC[C@@H](C(=O)Nc3ccccc3)C2)n1.O=C(O)C(F)(F)F.O=C(O)C(F)(F)F [GSK2288359] with CAMKK2, please?
Reply | 16%

Ask | Give the reported %Inh for Fc1cccc(COc2ccc(Nc3ncnc4sc(-c5ccc[nH]5)cc34)cc2Cl)c1 [GW707818] (system: CAMKK2).
Reply | 16%

Every entry's value here was drawn from paper PMC5540273.
